Would you mind telling me the reported GI50 of each entry?
tested on: PC-3; test: NCI tumour cell line growth inhibition, 48 h
Activity calls are given as the source filed them. Cut-off read from the data, not from the text of the source: active = GI50 up to about 1.1 µM and inactive = higher.

Cc1cn(C2CC(O)C(Cn3nncc3Cn3nc(Br)c(=O)[nH]c3=O)O2)c(=O)[nH]c1=O (centres undefined)
> 100 µM (inactive)

Kindly give each listed record's GI50.
1. COc1c2cc(C(C)(C)C)cc1Cc1cccc(c1OCc1cccc([N+](=O)[O-])c1)Cc1cc(C(C)(C)C)cc(c1OC)Cc1cccc(c1OCc1cccc([N+](=O)[O-])c1)Cc1cc(C(C)(C)C)cc(c1OC)Cc1cccc(c1OCc1cccc([N+](=O)[O-])c1)C2
2. O=C1C(Cl)=C(N2CCN(CCOCCO)CC2)C(=O)c2ccccc21
3. O=C(O)c1ccc(Nc2nc3cc(C(F)(F)F)ccc3n3cccc23)cc1

> 50 µM (inactive)
18 µM (inactive)
25.5 µM (inactive)

* * *

system: M19-MEL; experiment: NCI tumour cell line growth inhibition, 48 h
The source made the active and inactive calls. No stated cut-off is given here; in the data, active = GI50 up to about 1.1 µM and inactive = higher.
Kindly supply the reported GI50 values for the records listed here.

O=C(CCN1CCN(c2cccc(Cl)c2)CC1)N1CCc2c([nH]c3ccccc23)C1c1cccnc1 (stereo not drawn)
13.3 µM (inactive)
Sc1nnc(COc2ccc(Cl)cc2Cl)[nH]1
> 100 µM (inactive)

I have 8 molecules here; please give me GI50 for each one.
1. CN(C)CCNC(=O)c1cccc2nc3ccc4ccccc4c3nc12
2. Cc1nc(N)nc(N)c1CCCc1ccccc1
3. O=C(Nc1ccc(Cl)cc1Cl)C1C(=O)C(=O)N(c2ccc(Cl)cc2Cl)C1=O (stereo not drawn)
4. N#CCCN(CCC#N)C(=O)c1cccc(C(=O)N(CCC#N)CCC#N)c1
5. c1ccc2c(c1)[nH]c1c2nc2ncccn21
6. Fc1ccc(/N=C2C=C/C(=N\c3ccc(F)cc3)c3ccccc3\2)cc1
7. CCCCCCCC(=O)OC[C@H](C[As](=O)(O)O)OC(=O)CCCCCCC
8. Cc1cc(C)nc(NS(=O)(=O)c2ccc(NC(=O)c3cccc4c(Nc5ccc(S(=O)(=O)Nc6nc(C)cc(C)n6)cc5)c5ccccc5nc34)cc2)n1

1. 0.0946 µM (active)
2. 9.95 µM (inactive)
3. > 100 µM (inactive)
4. > 100 µM (inactive)
5. > 100 µM (inactive)
6. > 100 µM (inactive)
7. 13.3 µM (inactive)
8. 29.5 µM (inactive)

# batch: return GI50 for each of the 3 molecules below
1. COc1cc(Br)c(/C=N\c2cccc3cc(OC)c(OC)cc23)cc1OC
2. CCCS(=O)(=O)/C(=C(\c1ccc(Br)cc1)S(=O)(=O)CCC)c1ccc(Br)cc1
3. CC(=O)OCC1OC(NC(=S)N/N=C2\CC(c3ccccc3)Oc3ccccc32)C(OC(C)=O)C(OC(C)=O)C1OC(C)=O (stereo not drawn)

1. 41.6 µM (inactive)
2. > 10 µM (inactive)
3. > 100 µM (inactive)

* * *

tested on: XF498; assay: NCI tumour cell line growth inhibition, 48 h
Active and inactive are the calls of the source. Rule as the data show it: active = GI50 up to about 1.1 µM and inactive = higher.
Pick one and only one: Yes = active, No = inactive

Solved cases (5 shown):
O=C1CC(C[C@H](O)C2CCCCC2O)CC(=O)N1Cc1ccccc1 (some centres undefined)
No
CC(=O)C1=C(O)C(N)C2Cc3c(c(O)c4c(O)c(C)ccc4c3C)C(=O)C2(O)C1=O (centres undefined)
No
COc1ccc2nc(-c3ccc(O)cc3)cc(O)c2c1
Yes
O=S(=O)(O)c1ccc([Se][Se]c2ccc(S(=O)(=O)O)cc2)cc1
No
CCOC(=O)C1=C(C)N(Cc2ccccc2)C(C)=C(C(=O)OCC)C1c1ccccc1O
No

Record request — test call for Cc1cc(O)c(C=O)c(C)c1CCC1(C)C=Cc2cc(O)ccc2O1 (centres undefined) No

Call for entry O=C1CC2CCCCC2=C1O (centres undefined) : No

Can you look up the reported call for O=C1NC(=O)C2C(=O)NC(=O)C1C2Cc1ccco1 (centres undefined) for me? No

# outcome recorded in this test, key = CN1C(=O)CCC1(O)C1C=CC=CC1 (centres undefined) No

* * *

test system: RPMI-8226; test: NCI tumour cell line growth inhibition, 48 h
Active and inactive are the calls of the source. Rule as the data show it: active = GI50 up to about 1.1 µM and inactive = higher.
// allowed return values: 1 (yes) for active, 0 (no) for inactive

Some solved cases for reference:
Cc1c2cc[n+](C)cc2c(C)c2c1sc1ccccc12
0 (no)
COc1ccc(Nc2nc(N)c(C(=O)c3ccco3)s2)cc1
0 (no)
COc1ccc(N2C(=O)C3c4[nH]c5c(C)cccc5c4C4CCC(C(C)(C)C)CC4C3C2=O)cc1 (stereo not drawn)
0 (no)
COc1cc(-c2ccccc2)cn2c1nc1ccccc12
0 (no)
Cc1cc(O)c(C=O)c(C)c1CCC1(C)C=Cc2cc(O)ccc2O1 (stereo not drawn)
0 (no)
CN(C)C(=S)N/N=C\C=N/NC(=S)N(C)C
1 (yes)

What call does the record list for OC12c3ccccc3C1CCCCCCCCCC21OCCCO1 (stereo not drawn) ? 0 (no)

Please let me know the test result on file for CC(C)CCCC(C)[C@H]1CC[C@H]2NCCCC[C@]12C (stereo partly drawn) . 0 (no)

I would be grateful if you could indicate the recorded call for COc1cc(C2c3cc4c(cc3OC(NNc3ccccc3)C2C)OCO4)cc(OC)c1OC (stereo not drawn) . 0 (no)

Tell me the recorded outcome of this test for CC(C)(C)O/N=C/c1cc(NC(=S)c2ccccc2)ccc1Cl . 0 (no)

Name the outcome recorded for CCOC(=O)N1CC2(C)C=CC1C(C(=O)OC)C2 (stereo not drawn) in the assay. 0 (no)

* * *

test system: MDA-MB-435; assay: NCI tumour cell line growth inhibition, 48 h
The source made the active and inactive calls. No stated cut-off is given here; in the data, active = GI50 up to about 1.1 µM and inactive = higher.
I'd appreciate it if you could supply GI50 values for the items below.

COc1ccc2c3c1O[C@H]1C(=O)C=CC4(n5[nH]c(=O)n(-c6ccccc6)c5=O)C(C2)N(C)CCC314 (stereo partly specified)
> 100 µM (inactive)

List the reported GI50 of each compound below.
1. O=C(NCc1ccccc1)c1cc2ccccc2o/c1=N\c1ccccc1F
2. Cc1c(C)c(S(=O)(=O)N(CCCN)OCCCN)c(C)c2c1OC(C)(C)CC2
3. COC(=O)Cc1ccc2c(c1)Sc1ccc(CC(=O)OC)cc1N2C
4. COc1cc(C2SCC(=O)N2c2cccc(Cl)c2)cc(OC)c1OC (stereo unspecified)
5. CC(C)(C)OC(=O)NC(Cc1ccc(OCc2ccccc2)cn1)C(N)=O (stereo unspecified)
6. c1csc(-c2ccsc2-c2cccs2)c1
7. CCOP(=O)(OCC)c1c(C(=O)OC)cc(=O)[nH]c1-c1ccc(C)cc1
8. O=C(O)c1cccc(OCCOc2cccc(C(=O)O)c2[N+](=O)[O-])c1[N+](=O)[O-]

1. 26.3 µM (inactive)
2. 15.8 µM (inactive)
3. 6.4 µM (inactive)
4. 29.5 µM (inactive)
5. > 100 µM (inactive)
6. 24.4 µM (inactive)
7. 18.5 µM (inactive)
8. > 100 µM (inactive)

Hi team, please reply with GI50 for each item in this list.
1. COc1cc(OC)c2c(=O)cc(-c3ccccc3F)[nH]c2c1
2. O=C(O)c1nn[nH]c1Cl

["8.38 µM (inactive)", "> 100 µM (inactive)"]

* * *

test system: SK-MEL-28; experiment: NCI tumour cell line growth inhibition, 48 h
Calls of active or inactive are those of the source. Cut-off read from the data, not from the text of the source: active = GI50 up to about 1.1 µM and inactive = higher.
Pick one and only one: 1.0 (active), 0.0 (inactive)

Nc1ccccc1C(=O)CCC1C(=O)NC(=S)NC1=O
0.0
CC(C)(C)OC(=O)NC(Cc1ccc(OCc2ccccc2)cn1)C(N)=O (configuration not stated)
0.0
O=C(Nc1ccc(Cl)cc1Cl)C1C(=O)C(=O)N(c2ccc(Cl)cc2Cl)C1=O (configuration not stated)
0.0

For Nc1c(Cl)ncnc1NCCCNc1ncnc(Cl)c1N , what call appears in the results of this test? 0.0

What did this assay record as the result for Cc1nc(N)nc(N)c1CCCc1ccccc1 ? 0.0

# outcome recorded in this test, key = COC(=O)C(CCSC)NC(=O)CNC(=O)CSc1nnc(COc2ccc(Cl)cc2)n1-c1ccccc1 (configuration not stated) 0.0

What did this assay record as the result for Cc1cccc(NC(=S)Nc2ccc(Cl)cc2)n1 ? 0.0

Which outcome was assigned to C=CCc1cccc2cc(C(=O)NCc3ccccc3)c(=N)oc12 in this test? 0.0

Record request — test call for COc1ccc2nc(-c3ccc(O)cc3)cc(O)c2c1 0.0

Test call for this molecule, please: COc1ccc(CC2NC(=O)/C=C/CC(C(C)C3OC3c3ccccc3)OC(=O)C(CC(C)C)OC(=O)C(C)CNC2=O)cc1Cl (configuration not stated) 1.0

* * *

system: IGROV-1; assay: NCI tumour cell line growth inhibition, 48 h
Calls of active or inactive are those of the source. No stated cut-off is given here; in the data, active = GI50 up to about 1.1 µM and inactive = higher.
Classes to choose from: active, inactive

Below are worked cases with known answers.
CC1(C)C2CCC3CC(CCC#N)CCC3C21C#N (stereo not given)
inactive
c1ccc2c(c1)[nH]c1c2nc2ncccn21
inactive
COc1ccc([C@H]2CC(=O)C[C@H](c3ccc(OC)cc3)C23C(=O)c2ccccc2C3=O)cc1
inactive
CC(=O)OCC1OC(NC(=S)N/N=C2\CC(c3ccccc3)Oc3ccccc32)C(OC(C)=O)C(OC(C)=O)C1OC(C)=O (stereo not given)
inactive
O=C(NCCCNCCNC(=O)c1cc(-c2ccccc2)nc2ccccc12)c1cc(-c2ccccc2)nc2ccccc12
inactive
C[N+]1(C)C(c2ccccc2)C(=O)O[B@-]1(F)c1ccccc1 (stereo not given in full)
inactive

Could you kindly confirm the outcome this assay logged for Cn1c(=O)c2[nH]c(N=O)nc2n(C)c1=O ? inactive

Could you kindly confirm the outcome this assay logged for COc1cc(-c2ccccc2)cn2c1nc1ccccc12 ? inactive

Outcome logged for Cc1cc2c(cc1C)[n+]([O-])c(C(=O)/C=C/c1ccccc1Cl)c(C)[n+]2[O-] in this assay: inactive
